Items are presented alongside their recorded Kd.
assayed_target: human γδ TCR (Vγ9Vδ2) on human Vδ2+ γδ T cells (human) (UniProt A0JD36)
experiment_summary: flow cytometry on expanded human Vδ2+ γδ T cells, nonlinear fit
reported_property: Kd

[[record]]
binder = "hu1D7v89 VHH-hIgG1 Fc-NNT (monomeric) (VHH) VHH: EVQLLESGGGEVQPGGSLRLSCVASRGKISQYRMGWYRQAPGKERELVAHISNTGDAAEYVDSVKDRFTISRDSTKNALYLQMSSLRAEDTAVYKCQGVEDILAWGQGTLVTVRP"
measured_result = "1950 nM"

[[record]]
binder = "hu1D7v11 VHH-hIgG1 Fc-NNT (monomeric) (VHH) VHH: EVQLLESGGGEVQPGGSLRLSCVASRGKISQYRMGWYRQAPGKGLEWVAAISNTGDAAEYVDSVKGRFTISRDSTKNAVYLQMSSLRAEDTAVYKCNSVEDILAWGQGTLVTVKP"
measured_result = "42.2 nM"

[[record]]
binder = "hu1D7v99 VHH-hIgG1 Fc-NNT (monomeric) (VHH) VHH: EVQLLESGGGEVQPGGSLRLSCVASRGKISQYRMGWYRQAPGKERELVAHISNTGDAAEYVSSVKDRFTISRDSTKNALYLQMSSLRAEDTAVYKCNSVEDILAWGQGTLVTVRP"
measured_result = "116 nM"

[[record]]
binder = "hu1D7v30 VHH-hIgG1 Fc-NNT (monomeric) (VHH) VHH: EVQLLESGGGEVQPGGSLRLSCVASRGKISQYRMGWYRQAPGKELEWVAHISNTGDAAYYVDSVKGRFTISRDSTKNAVYLQMSSLRAEDTAVYKCNSVEDILAWGQGTLVTVKP"
measured_result = "38.4 nM"

[[record]]
binder = "hu1D7v70 VHH-hIgG1 Fc-NNT (monomeric) (VHH) VHH: EVQLLESGGGEVQPGGSLRLSCVASRGKISQYRMGWYRQAPGKERELVAHISNTGDAAEYVDSVKDRFTISRDSTKNALYLQMSSLRAEDTAVYKCESVEDILAWGQGTLVTVRP"
measured_result = "441 nM"

[[record]]
binder = "hu1D7v58 VHH-hIgG1 Fc-NNT (monomeric) (VHH) VHH: EVQLLESGGGEVQPGGSLRLSCVASRGKISQYRMGWYRQAPGKERELVAHISNTGDAAEYVDSVKDRFTISRDSTKNALYLQMSSLRAEDTAVYKCNSVEDILAWGQGTLVTVRP"
measured_result = "8.07 nM"

[[record]]
binder = "hu1D7v35 VHH-hIgG1 Fc-NNT (monomeric) (VHH) VHH: EVQLLESGGGEVQPGGSLRLSCVASRGKISQYRMGWYRQAPGKELEWVAHISNTGDAAEYVDSVKGRFTISRDSTKNALYLQMSSLRAEDTAVYKCNSVEDILAWGQGTLVTVKP"
measured_result = "8.4 nM"

[[record]]
binder = "hu1D7v29 VHH-hIgG1 Fc-NNT (monomeric) (VHH) VHH: EVQLLESGGGEVQPGGSLRLSCVASRGKISSYRMGWYRQAPGKELEWVAHISNTGDAAEYVDSVKGRFTISRDSTKNAVYLQMSSLRAEDTAVYKCNSVEDILAWGQGTLVTVKP"
measured_result = "7230 nM"

[[record]]
binder = "hu1D7v78 VHH-hIgG1 Fc-NNT (monomeric) (VHH) VHH: EVQLLESGGGEVQPGGSLRLSCVASRGKISQYRMGWYRQAPGKERELVAHISNTGDAAEYVDSVKDRFTISRDSTKNALYLQMSSLRAEDTAVYKCNAVEDILAWGQGTLVTVRP"
measured_result = "481 nM"

[[record]]
binder = "hu1D7v17 VHH-hIgG1 Fc-NNT (monomeric) (VHH) VHH: EVQLLESGGGEVQPGGSLRLSCVASRGKISQYRMGWYRQAPGKGLEWVAHISNTGDAAYYVDSVKGRFTISRDSTKNAVYLQMSSLRAEDTAVYKCNSVEDILAWGQGTLVTVKP"
measured_result = "20.1 nM"

[[record]]
binder = "hu1D7v24 VHH-hIgG1 Fc-NNT (monomeric) (VHH) VHH: EVQLLESGGGEVQPGGSLRLSCVASRGKISQYRMGWYRQAPGKGLEWVAHISNTGDAAEYVDSVKGRFTISRDSTKNAVYLQMSSLRAEDTAVYKCNAVEDILAWGQGTLVTVKP"
measured_result = "9440 nM"

[[record]]
binder = "hu1D7v86 VHH-hIgG1 Fc-NNT (monomeric) (VHH) VHH: EVQLLESGGGEVQPGGSLRLSCVASRGKISQYRMGWYRQAPGKERELVAHISNTGDAAEYVGGVKDRFTISRDSTKNALYLQMSSLRAEDTAVYKCNSVEDILAWGQGTLVTVRP"
measured_result = "126 nM"

[[record]]
binder = "hu1D7v87 VHH-hIgG1 Fc-NNT (monomeric) (VHH) VHH: EVQLLESGGGEVQPGGSLRLSCVASRGKISQYRMGWYRQAPGKERELVAHISNTGDAAEYVQSVKDRFTISRDSTKNALYLQMSSLRAEDTAVYKCNSVEDILAWGQGTLVTVRP"
measured_result = "44.9 nM"

[[record]]
binder = "hu1D7v88 VHH-hIgG1 Fc-NNT (monomeric) (VHH) VHH: EVQLLESGGGEVQPGGSLRLSCVASRGKISQYRMGWYRQAPGKERELVAHISNTGDAAEYVQGVKDRFTISRDSTKNALYLQMSSLRAEDTAVYKCNSVEDILAWGQGTLVTVRP"
measured_result = "61.5 nM"

[[record]]
binder = "hu1D7v72 VHH-hIgG1 Fc-NNT (monomeric) (VHH) VHH: EVQLLESGGGEVQPGGSLRLSCVASRGKISQYRMGWYRQAPGKERELVAHISNTGDAAEYVDLVKDRFTISRDSTKNALYLQMSSLRAEDTAVYKCNSVEDILAWGQGTLVTVRP"
measured_result = "182 nM"

